Experiment description: NCI Yeast Anticancer Drug Screen. Data for the mlh1 strain (AID 171);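 also: 0% = growth of vehicle-treated control cultures of the same strain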
Test context: S. cerevisiae mlh1 strain growth inhibition; at 100.0 µM; hits give high values
Compounds without any hit were thinned out: in the full panel of roughly 79,000, 15% have a hit.
Classes (growth inhibition): interval 1 = under 40%, interval 2 = from 40% up to 90%, interval 3 = 90% and over

| Compound | Class assignment |
| --- | --- |
| CC(Br)C(=O)c1ccc2cc(Br)c3ccccc3c2c1 (stereo unspecified) | interval 1 |
| O=C([O][Sn]([O]C(=O)c1ccccc1)([c]1ccccc1)[c]1ccccc1)c1ccccc1 | interval 2 |
| COc1cccc2nc3ccccc3nc12 | interval 3 |
| O=C1c2ccccc2C(=O)c2c(NC3CCCCC3)ccc(Nc3ccc(S(=O)(=O)O)cc3)c21 | interval 2 |
| Nc1nc(Cl)c(Cl)c(Cl)n1 | interval 3 |
| Nc1ccccc1CC(O)C(=O)O (stereo unspecified) | interval 3 |
| O=c1c2ccccc2ncn1COCc1ccccc1 | interval 1 |
| O=C(Nc1ccccc1)C(=O)C(C(=O)c1ccccc1)C(c1ccccc1)c1ccccc1 (stereo unspecified) | interval 1 |
| O=C(COC(=O)c1cc(O)c(O)c(O)c1)c1ccc(-c2ccccc2)cc1 | interval 3 |
| O=C1C2C=CC1C1C(=O)OC(=O)C21 (stereo unspecified) | interval 1 |
| O=C1OC(CCl)CN1/N=C/c1ccc([N+](=O)[O-])o1 (stereo unspecified) | interval 2 |
| COc1ccccc1C(=O)OCC1CCCN2CCCCC12 (stereo unspecified) | interval 3 |
| O=[N+]([O-])CC(SCc1ccccc1)c1ccc2c(c1)OCO2 (stereo unspecified) | interval 3 |
| CCNc1nnc(CSc2nc(-c3ccccc3)c(-c3ccccc3)[nH]2)s1 | interval 2 |
| CC(C)NC(=O)OCc1c(COC(=O)NC(C)C)c(-c2ccc(Cl)c(Cl)c2)n2c1CCC2 | interval 2 |
| CN(CCc1ccccn1)c1ccc2c(c1)Cc1ccccc1-2 | interval 1 |
| CC[C@@]1(O)C(=O)OCc2c1cc1n(c2=O)Cc2cc3c(CN(C)C)c(O)ccc3nc2-1 | interval 1 |
| O=C(NCCCCNCCCNC(=O)c1cc(-c2ccccc2)nc2ccccc12)c1cc(-c2ccccc2)nc2ccccc12 | interval 3 |
| CC(C)/C(Cl)=N\OC(=O)Nc1cccc(Cl)c1 | interval 1 |
| O=C(O)c1ccccc1NC(=S)c1ccccc1 | interval 2 |
| Cc1[nH]c2ccccc2c1C(c1ccc(N)cc1)c1c(C)[nH]c2ccccc12 | interval 2 |
| Cc1ccc(NC(=O)/C(Cl)=C(\Cl)C(=O)O)cc1C | interval 3 |
| O=[N+]([O-])c1ccc([N+]2=NC(c3ccccc3)=NN(c3ccccc3)C2)cc1 | interval 3 |
| [N-]=[N+]=NC1=C(c2ccccn2)C(=O)c2cccc3cccc1c23 | interval 2 |
| O=C1C(Nc2ccccc2)=C(Oc2ccccc2)C(=O)c2ccccc21 | interval 1 |
| O=C(OCCN1CCCCCC1)C(c1ccsc1)C1CCCCC1 (stereo unspecified) | interval 1 |
| Cc1cccc2c(C(O)CBr)cc(-c3ccc(Cl)cc3)nc12 (stereo unspecified) | interval 2 |
| CCN(CC)CCNc1ccc([N+](=O)[O-])c2nc3ccc(OC)cc3c(N)c12 | interval 2 |
| Cc1ccc(S(=O)(=O)NNC(=S)Nc2cccc3ccccc23)cc1 | interval 1 |
| CCCCCCCCCCCCCCC(C(=O)[O-])[n+]1ccccc1 (stereo unspecified) | interval 3 |
| O=C1C=CC(=Nc2ccc3c(c2)Cc2cc(NC(=O)C(F)(F)F)ccc2-3)O1 | interval 3 |
| COC(=O)c1ccc(CCC2=CC(=O)C(Br)=CC2=O)cc1 | interval 2 |
| C/C(=N\NC(=S)N1CCCCC1)c1cccc(C)n1 | interval 3 |
| OC(COc1cccc2ccccc12)CN1CCOCC1 (stereo unspecified) | interval 1 |
